Sourced from patent US7160874B2

# key: entry, value: IC50
system_tested: integrin α4β1 (Homo sapiens, UniProt P05556+P13612)
Construct: cell strain Jurkat (ATCC TIB-152) of human T cells, known to express integrin α4β1; host or cells: Jurkat (human T cell line)
Sequence (P13612 34-1032): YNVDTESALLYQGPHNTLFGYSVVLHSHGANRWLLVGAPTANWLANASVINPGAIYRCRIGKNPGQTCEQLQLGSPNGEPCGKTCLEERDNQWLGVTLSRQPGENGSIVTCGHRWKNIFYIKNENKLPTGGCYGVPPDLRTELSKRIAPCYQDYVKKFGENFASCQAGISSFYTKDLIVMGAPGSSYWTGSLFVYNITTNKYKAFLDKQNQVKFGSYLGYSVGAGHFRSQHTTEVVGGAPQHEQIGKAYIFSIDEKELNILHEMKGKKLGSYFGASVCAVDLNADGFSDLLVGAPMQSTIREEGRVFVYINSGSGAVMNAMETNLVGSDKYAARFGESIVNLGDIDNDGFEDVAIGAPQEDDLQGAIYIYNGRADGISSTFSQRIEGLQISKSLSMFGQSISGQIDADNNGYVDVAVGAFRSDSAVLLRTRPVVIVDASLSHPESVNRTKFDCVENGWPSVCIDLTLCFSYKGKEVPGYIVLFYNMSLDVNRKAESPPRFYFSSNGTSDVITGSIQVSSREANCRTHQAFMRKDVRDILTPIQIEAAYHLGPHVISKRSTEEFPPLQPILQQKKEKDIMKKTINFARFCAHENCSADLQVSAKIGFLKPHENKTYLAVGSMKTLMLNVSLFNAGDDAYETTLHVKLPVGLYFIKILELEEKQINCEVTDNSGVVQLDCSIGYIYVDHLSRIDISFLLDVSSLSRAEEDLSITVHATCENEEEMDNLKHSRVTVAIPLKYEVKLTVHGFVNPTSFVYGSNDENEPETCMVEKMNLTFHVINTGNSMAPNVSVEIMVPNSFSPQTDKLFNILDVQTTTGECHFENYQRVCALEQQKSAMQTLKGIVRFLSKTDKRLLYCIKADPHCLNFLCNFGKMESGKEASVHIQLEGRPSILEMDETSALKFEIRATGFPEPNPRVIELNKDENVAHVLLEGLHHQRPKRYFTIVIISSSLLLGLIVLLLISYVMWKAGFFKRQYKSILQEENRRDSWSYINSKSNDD
Sequence (P05556 21-798): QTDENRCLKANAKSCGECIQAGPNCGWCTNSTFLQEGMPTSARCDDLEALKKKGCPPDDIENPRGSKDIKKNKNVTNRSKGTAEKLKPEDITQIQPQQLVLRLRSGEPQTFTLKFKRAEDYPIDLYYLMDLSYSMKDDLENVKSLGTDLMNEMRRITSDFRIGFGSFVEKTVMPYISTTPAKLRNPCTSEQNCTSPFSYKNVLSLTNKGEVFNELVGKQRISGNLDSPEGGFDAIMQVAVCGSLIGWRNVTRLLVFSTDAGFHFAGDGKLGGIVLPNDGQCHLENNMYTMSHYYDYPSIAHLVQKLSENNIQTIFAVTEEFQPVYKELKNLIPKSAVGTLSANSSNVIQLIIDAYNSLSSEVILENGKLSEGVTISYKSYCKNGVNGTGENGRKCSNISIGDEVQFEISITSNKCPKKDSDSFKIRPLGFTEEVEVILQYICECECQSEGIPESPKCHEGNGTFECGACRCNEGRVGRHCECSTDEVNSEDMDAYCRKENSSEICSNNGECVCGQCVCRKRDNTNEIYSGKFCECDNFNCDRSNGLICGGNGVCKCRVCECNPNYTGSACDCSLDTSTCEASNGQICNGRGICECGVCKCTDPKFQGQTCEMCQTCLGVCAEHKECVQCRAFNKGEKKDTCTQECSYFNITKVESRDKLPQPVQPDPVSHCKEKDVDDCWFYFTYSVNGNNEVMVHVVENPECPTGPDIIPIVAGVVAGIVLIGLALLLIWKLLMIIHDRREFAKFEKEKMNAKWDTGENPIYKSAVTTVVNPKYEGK
protocol_description: VCAM antagonist activity (VCAM-1/α4β1 binding assay)
Type: cell-based
conditions_used: Jurkat cells binding to VCAM-1; read-out: VCAM antagonistic activity (IC50) α4β1

compound	readout	reading
CCC(CC)(C(=O)N[C@@H](Cc1ccc(OCc2c(Cl)cccc2Cl)cc1)C(=O)O)C(=O)N1CCN(C(C)=O)CC1 [Example 464]	IC50	100 to 2000 nM
CCC(CC)(C(=O)N[C@@H](Cc1ccc(OCc2c(Cl)cccc2Cl)cc1)C(=O)O)C(=O)N1CC[C@H](O)C1 [Example 65]	IC50	100 to 2000 nM
CN(C)C(=O)C1(C(=O)N[C@@H](Cc2ccc(NC(=O)c3c(Cl)cccc3Cl)cc2)C(=O)O)CC1 [Example 90]	IC50	100 to 2000 nM

Look up and state reported IC50 for CCCC(CC)(C(=O)NC(Cc1ccc(OCc2c(Cl)cccc2Cl)cc1)C(=O)O)C(=O)N1CCCC1 (mixture of isomers) [Example 37] 2000 to 10000 nM

Look up and state reported IC50 for CCC(CC)(C(=O)N[C@@H](Cc1ccc(NC(=O)c2ccccc2[N+](=O)[O-])cc1)C(=O)O)C(=O)N1CCCC1 [Example 97] 20 to 100 nM

Look up and state reported IC50 for CN(C)C(=O)C1(C(=O)N[C@@H](Cc2ccc(OCc3c(Cl)cccc3Cl)cc2)C(=O)O)CCOCC1 [Example 468] 100 to 2000 nM

Look up and state reported IC50 for CC1(C)CC2CC(C)(CN2C(=O)C2(C(=O)NC(Cc3ccc(OCc4c(Cl)cccc4Cl)cc3)C(=O)O)CCOCC2)C1 (stereo not shown) [Example 472] 2000 to 10000 nM

###

system_tested: integrin α4β1 (Homo sapiens, UniProt P05556+P13612)
Construct: cell strain Jurkat (ATCC TIB-152) of human T cells, known to express integrin α4β1; host or cells: Jurkat (human T cell line)
protocol_description: VCAM antagonist activity (VCAM-1/α4β1 binding assay)
Format: cell-based
conditions_used: Jurkat cells binding to VCAM-1; read-out: VCAM antagonistic activity (IC50) α4β1
# key: entry, value: IC50

compound	readout	reading
CCC(CC)(C(=O)N[C@@H](Cc1ccc(OCc2c(Cl)cccc2Cl)cc1)C(=O)O)C(=O)N(C)C [Example 3]	IC50	0.1 to 2 µM
CCC(CC)(C(=O)N[C@@H](Cc1ccc(OCc2c(Cl)cccc2Cl)cc1)C(=O)O)C(=O)N1CCN(c2ccc(O)cc2)CC1 [Example 7]	IC50	0.1 to 2 µM
CCC(CC)(C(=O)N[C@@H](Cc1ccc(NC(=O)c2nc(SC)ncc2Cl)cc1)C(=O)O)C(=O)N1CCCC1 [Example 94]	IC50	0.02 to 0.1 µM
CCC(CC)(C(=O)NC(Cc1ccc(OCc2c(Cl)cccc2Cl)cc1)C(=O)O)C(=O)N1CCC(N)C1 (mixture of isomers) [Example 47]	IC50	0.1 to 2 µM
CCC(CCOC)(C(=O)NC(Cc1ccc(OCc2c(Cl)cccc2Cl)cc1)C(=O)O)C(=O)N1CCCC1 (mixture of isomers) [Example 43]	IC50	0.1 to 2 µM
CCC(CC)(C(=O)N[C@@H](Cc1ccc(OCc2c(Cl)cccc2Cl)cc1)C(=O)O)C(=O)N1CC[C@@H](N)C1 [Example 76]	IC50	0.1 to 2 µM

Look up and state reported IC50 for CCN(C)C(=O)C(CC)(CC)C(=O)N[C@@H](Cc1ccc(OCc2c(Cl)cccc2Cl)cc1)C(=O)O [Example 41] 0.1 to 2 µM

Look up and state reported IC50 for CCC(CC)(C(=O)N[C@@H](Cc1ccc(-c2c(OC)cccc2OC)cc1)C(=O)O)C(=O)N(C)C [Example 104] 0.1 to 2 µM

Look up and state reported IC50 for CN(C)C(=O)C1(C(=O)N[C@@H](Cc2ccc(NC(=O)c3cc(Br)ccc3Cl)cc2)C(=O)O)CC1 [Example 87] 0.1 to 2 µM

Look up and state reported IC50 for CCC(CC)(C(=O)N[C@@H](Cc1ccc(NC(=O)c2nc(NCc3ccc(OC)cc3)ncc2Cl)cc1)C(=O)O)C(=O)N1CCCC1 [Example 480] 0.02 to 0.1 µM

Look up and state reported IC50 for CCC(CC)(C(=O)N[C@@H](Cc1ccc(-n2c(=O)c3ccccc3n(CC(=O)OC)c2=O)cc1)C(=O)O)C(=O)N1CCCC1 [Example 103] 0.1 to 2 µM

Look up and state reported IC50 for CCC(CC)(C(=O)Nc1ccc(O)cc1)C(=O)N[C@@H](Cc1ccc(OCc2c(Cl)cccc2Cl)cc1)C(=O)O [Example 5] 0.1 to 2 µM

Look up and state reported IC50 for CCC(CC)(C(=O)N[C@@H](Cc1ccc(NC(=O)c2nc(S(C)(=O)=O)ncc2Cl)cc1)C(=O)O)C(=O)N1CCCC1 [Example 479] 0.02 to 0.1 µM

Look up and state reported IC50 for CCC(CC)(C(=O)N[C@@H](Cc1ccc(OCc2c(Cl)cccc2Cl)cc1)C(=O)O)C(=O)N1CCC(C(N)=O)CC1 [Example 39] 0.1 to 2 µM
